# Tested on: RKO
# procedure.details: cells
# Assay type: cell-based
# condition: basal; read-out: Basal_Viability ATP RKO
quantity.measured: IC50 (nM)
Answers are plain numbers, in nM.

Briefly, IC50 measured for O=[N+]([O-])c1ccc(Oc2ccc(N=C=S)cc2)cc1 : 2340

---

# Tested on: nuclear β-catenin in C2C12 cells
# procedure.details: cells
# Type: cell-based
# condition: Mus musculus, C2C12, read-out: Wnt pot. EC50
pEC50: −log10 of the molar value.
quantity.measured: pEC50

compound | pEC50
CN(C)CCC=C1c2ccccc2CCc2ccccc21 [amitriptyline, reference compound] | < 5.00
CCCCCCCCCCCCCCCCNc1ccc(C(=O)O)cc1 [cetaben sodium, sodium p-(hexadecylamino) benzoate, reference compound] | < 5.00

// moving on: another record for pEC50
Briefly, pEC50 measured for O=C(NOCC1CC1)c1ccc(F)c(F)c1Nc1ccc(I)cc1Cl [PD-184352, reference compound] : < 5.00

Reference for the values: paper PMC4503722
